Numbers sourced from patent US20240270821A1.

- Experimental system: human glucagon receptor (human) (UniProt P47871)
- Sequence (P47871 26-477): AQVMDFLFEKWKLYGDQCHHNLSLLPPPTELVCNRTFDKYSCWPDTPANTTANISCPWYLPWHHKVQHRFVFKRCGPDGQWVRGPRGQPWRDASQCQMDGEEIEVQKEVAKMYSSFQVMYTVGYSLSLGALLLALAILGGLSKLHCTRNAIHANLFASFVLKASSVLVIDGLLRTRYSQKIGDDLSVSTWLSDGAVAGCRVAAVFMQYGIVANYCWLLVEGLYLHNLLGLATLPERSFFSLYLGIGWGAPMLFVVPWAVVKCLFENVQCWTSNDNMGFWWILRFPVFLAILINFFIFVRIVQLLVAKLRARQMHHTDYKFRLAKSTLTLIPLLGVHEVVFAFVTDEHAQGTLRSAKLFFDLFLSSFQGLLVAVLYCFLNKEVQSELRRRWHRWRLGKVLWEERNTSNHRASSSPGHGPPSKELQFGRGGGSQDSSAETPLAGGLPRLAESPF
- Assay explanation: cell-based or functional assay
Starred links: 1 amine or outer side, 2 acyl side, 3 side chain; linkers in the order of their positions; H or OH if unused. Non-standard residues stand in square brackets, D forms with d. Groups on a side chain read outwards from the residue. No end group written: not given here. *: point of attachment. C20 diacid = O=C(O)CCCCCCCCCCCCCCCCCCC(=O)*; γGlu = O=C(O)[C@H](CCC(=O)[*:2])N[*:1]; αMeL = CC(C)C[C@](C)(N)C(=O)O; AEEA = NCCOCCOCC(=O)O; Aib = CC(C)(N)C(=O)O
Label Criterion met when Relative cAMP EC50 is strictly below 4 nM; at or above that, label Criterion not met.

Is 4 nM strictly greater than the binder's reported Relative cAMP EC50? binder: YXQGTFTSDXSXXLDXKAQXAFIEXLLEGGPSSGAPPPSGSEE (non-natural residues, Glu-γGlu-C18 diacid acylation, C-terminal amide; synthetic construct; SITE 2: note = 2-Aminoisobutyric Acid; SITE 10: note = 3-(4-Pyridyl)-L-alanine; SITE 12: note = L-ornithine; SITE 13: note = alpha-methyl-leucine; SITE 16: note = L-ornithine; SITE 17: note = Lysine is chemically modified through conjugation of the epsilon-amino group of the Lys) [Example 1066] Criterion not met

Is 4 nM strictly greater than the binder's reported Relative cAMP EC50? binder: YXQGTFTSDFSQXLDKKAQXAFIEYLLEXGESSGAPPPSGE (synthetic construct; SITE 2: note = 2-Aminoisobutyric Acid; SITE 13: note = alpha-methyl-leucine; SITE 17: note = Lysine is chemically modified through conjugation of the epsilon-amino group of the Lysine side chain with (2-[2-(2-Amino-ethoxy)-ethoxy]-acetyl)-(gamma-Glu)-CO-(CH2) 16-CO2H; SITE 20: n) [Example 789] Criterion met

Is 4 nM strictly greater than the binder's reported Relative cAMP EC50? binder: YXQGTFTSDFSXXLDKKAQXAFIEYLLEXGPSSGAPPPGEG (synthetic construct; SITE 2: note = 2-Aminoisobutyric Acid; SITE 12: note = L-ornithine; SITE 13: note = alpha-methyl-leucine; SITE 17: note = Lysine is chemically modified through conjugation of the epsilon-amino group of the Lysine side chain with (2-[2-(2-Amino-ethoxy)-ethoxy]-acetyl)2-(gamma-Glu)) [Example 70] Criterion not met

Is 4 nM strictly greater than the binder's reported Relative cAMP EC50? binder: Y[Aib]QGTFTSDYSI[αMeL]LDKQAAK([AEEA-AEEA-γGlu-C20 diacid])QFIEWLIEGGPSSGEPPPGAE-NH2 [Example 319] Criterion not met

Is 4 nM strictly greater than the binder's reported Relative cAMP EC50? binder: YXQGTXTSDXXIXLDXIAQXXFIEXLIKGGPSSGEPPPE (not fully specified; synthetic construct; SITE 2: note = 2-Aminoisobutyric Acid; SITE 6: note = alpha-methyl-2-fluoro-L-phenylalanine; SITE 10: note = 3-(4-Pyridyl)-L-alanine; SITE 11: note = alpha-methyl-L-serine; SITE 13: note = alpha-methyl-leucine; SITE 16: note = L-ornithine; SITE 20: note = 2-Aminoisobutyric Acid;) [Example 444] Criterion not met

Is 4 nM strictly greater than the binder's reported Relative cAMP EC50? binder: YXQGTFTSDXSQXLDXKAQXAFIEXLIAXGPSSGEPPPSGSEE (non-natural residues, AEEA-γGlu-diacid acylated Lys, C-terminal amide; synthetic construct; SITE 2: note = 2-Aminoisobutyric Acid; SITE 10: note = 3-(4-Pyridyl)-L-alanine; SITE 13: note = alpha-methyl-leucine; SITE 16: note = L-ornithine; SITE 17: note = Lysine is chemically modified through conjugation of the epsilon-amino group of the Lysine side chain with (2-[2-(2-) [Example 1099] Criterion met

Is 4 nM strictly greater than the binder's reported Relative cAMP EC50? binder: YXQGTFTSDFSXXLDKKAQXAFIEYLLEGGPSSGAPPPSEG (synthetic construct; SITE 2: note = 2-Aminoisobutyric Acid; SITE 12: note = L-ornithine; SITE 13: note = alpha-methyl-leucine; SITE 17: note = Lysine is chemically modified through conjugation of the epsilon-amino group of the Lysine side chain with (2-[2-(2-Amino-ethoxy)-ethoxy]-acetyl)-(gamma-Glu)) [Example 50] Criterion not met

Is 4 nM strictly greater than the binder's reported Relative cAMP EC50? binder: YXQGTFTSDXSQXLDKKAQXAFIEWLIEGGPSSGAPPPSGS (synthetic construct; SITE 2: note = 2-Aminoisobutyric Acid; SITE 10: note = 3-(4-Pyridyl)-L-alanine; SITE 13: note = alpha-methyl-leucine; SITE 17: note = Lysine is chemically modified through conjugation of the epsilon-amino group of the Lysine side chain with (gamma-Glu)2-CO-(CH2)16-CO2H; SITE 20:) [Example 872] Criterion not met

Is 4 nM strictly greater than the binder's reported Relative cAMP EC50? binder: YXQGTFTSDXSQXLDXKAQXAFIEXLIEGGPSSGAPPPSGSEEE (acylated Lys e-γGlu-C18 diacid; non-natural residues; C-terminal amide; synthetic construct; SITE 2: note = 2-Aminoisobutyric Acid; SITE 10: note = 3-(4-Pyridyl)-L-alanine; SITE 13: note = alpha-methyl-leucine; SITE 16: note = L-ornithine; SITE 17: note = Lysine is chemically modified through conjugation of the epsilon-amino group of the Lysine side chain with D-Glutami) [Example 1071] Criterion not met

Is 4 nM strictly greater than the binder's reported Relative cAMP EC50? binder: YXQGTFTSDFSXXLDKKAQXAFIEYLLAGGPSSGEPPPSGE (synthetic construct; SITE 2: note = 2-Aminoisobutyric Acid; SITE 12: note = L-ornithine; SITE 13: note = alpha-methyl-leucine; SITE 17: note = Lysine is chemically modified through conjugation of the epsilon-amino group of the Lysine side chain with (2-[2-(2-Amino-ethoxy)-ethoxy]-acetyl)-(gamma-Glu)) [Example 97] Criterion not met

Is 4 nM strictly greater than the binder's reported Relative cAMP EC50? binder: YXQGTXTSDXSIXLDXKAQXXFIEXLLEGGPSSXEPPPE (synthetic construct; SITE 2: note = 2-Aminoisobutyric Acid; SITE 6: note = alpha-methyl-2-fluoro-L-phenylalanine; SITE 10: note = 3-(4-Pyridyl)-L-alanine; SITE 13: note = alpha-methyl-leucine; SITE 16: note = L-ornithine; SITE 17: note = Lysine is chemically modified through conjugation of the epsil) [Example 373] Criterion not met

Is 4 nM strictly greater than the binder's reported Relative cAMP EC50? binder: YXQGTXTSDXXIXLDXKAQXXFIEXLSEGGPSSGEPPPE (synthetic construct; SITE 2: note = 2-Aminoisobutyric Acid; SITE 6: note = alpha-methyl-2-fluoro-L-phenylalanine; SITE 10: note = 3-(4-Pyridyl)-L-alanine; SITE 11: note = alpha-methyl-L-serine; SITE 13: note = alpha-methyl-leucine; SITE 16: note = L-ornithine; SITE 17: note = Lysine is chemically mo) [Example 438] Criterion met

Is 4 nM strictly greater than the binder's reported Relative cAMP EC50? binder: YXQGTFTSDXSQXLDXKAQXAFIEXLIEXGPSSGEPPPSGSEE (non-natural residues; acylated Lys; C-terminal amide; synthetic construct; SITE 2: note = 2-Aminoisobutyric Acid; SITE 10: note = 3-(4-Pyridyl)-L-alanine; SITE 13: note = alpha-methyl-leucine; SITE 16: note = L-ornithine; SITE 17: note = Lysine is chemically modified through conjugation of the epsilon-amino group of the Lysine side chain with (2-[2-(2-) [Example 1097] Criterion not met

Is 4 nM strictly greater than the binder's reported Relative cAMP EC50? binder: YXQGTFTSDFSXXLDKKAQXAFIEYLLEXGPSSGAPPPSGX (synthetic construct; SITE 2: note = 2-Aminoisobutyric Acid; SITE 12: note = L-ornithine; SITE 13: note = alpha-methyl-leucine; SITE 17: note = Lysine is chemically modified through conjugation of the epsilon-amino group of the Lysine side chain with (gamma-Glu)-(2-[2-(2-Amino-ethoxy)-ethoxy]-acetyl)) [Example 277] Criterion not met

Is 4 nM strictly greater than the binder's reported Relative cAMP EC50? binder: YXQGTFTSDXSXXLDKKAQXAFIEYLIAGGPSSGAPPPSESE (not fully specified; synthetic construct; SITE 2: note = 2-Aminoisobutyric Acid; SITE 10: note = 3-(4-Pyridyl)-L-alanine; SITE 12: note = L-ornithine; SITE 13: note = alpha-methyl-leucine; SITE 17: note = Lysine is chemically modified through conjugation of the epsilon-amino group of the Lysine side chain with (gamma-Gl)) [Example 1010] Criterion not met

Is 4 nM strictly greater than the binder's reported Relative cAMP EC50? binder: YXQGTXTSDXSIXLDXKAQXXFIEXLIEGGPSSGEPPPSGE (synthetic construct; SITE 2: note = 2-Aminoisobutyric Acid; SITE 6: note = alpha-methyl-2-fluoro-L-phenylalanine; SITE 10: note = 3-(4-Pyridyl)-L-alanine; SITE 13: note = alpha-methyl-leucine; SITE 16: note = L-ornithine; SITE 17: note = Lysine is chemically modified through conjugation of the epsil) [Example 682 (SEQ ID NO: 688)] Criterion met

Is 4 nM strictly greater than the binder's reported Relative cAMP EC50? binder: YXQGTFTSDFSRXLDKKAQXAFIEYLLEGGPSSGAPPPGGS (Aib, αMeL; acylated Lys; C-terminal amide; synthetic construct; SITE 2: note = 2-Aminoisobutyric Acid; SITE 13: note = alpha-methyl-leucine; SITE 17: note = Lysine is chemically modified through conjugation of the epsilon-amino group of the Lysine side chain with (2-[2-(2-Amino-ethoxy)-ethoxy]-acetyl)-(gamma-Glu)-CO-(CH2) 18-CO2H; SITE 20: n) [Example 41] Criterion not met

Is 4 nM strictly greater than the binder's reported Relative cAMP EC50? binder: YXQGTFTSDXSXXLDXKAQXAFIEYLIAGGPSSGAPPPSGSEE (acylated Lys, C-terminal amide, non-natural residues; synthetic construct; SITE 2: note = 2-Aminoisobutyric Acid; SITE 10: note = 3-(4-Pyridyl)-L-alanine; SITE 12: note = L-ornithine; SITE 13: note = alpha-methyl-leucine; SITE 16: note = L-ornithine; SITE 17: note = Lysine is chemically modified through conjugation of the epsilon-amino group of the Lys) [Example 1059] Criterion not met

Is 4 nM strictly greater than the binder's reported Relative cAMP EC50? binder: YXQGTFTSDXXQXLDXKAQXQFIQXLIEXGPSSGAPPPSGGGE (not fully specified; non-natural residues; γ-Glu-C18 diacid acyl; C-terminal amide; synthetic construct; SITE 2: note = 2-Aminoisobutyric Acid; SITE 10: note = 3-(4-Pyridyl)-L-alanine; SITE 11: note = alpha-methyl-L-serine; SITE 13: note = alpha-methyl-leucine; SITE 16: note = L-ornithine; SITE 17: note = Lysine is chemically modified through conjugation of the epsilon-amino group) [Example 1137] Criterion not met

Is 4 nM strictly greater than the binder's reported Relative cAMP EC50? binder: YXQGTXTSDYSILLDXKAQXAFIEYLLEGGPSSGAPPPS (synthetic construct; SITE 2: note = 2-Aminoisobutyric Acid; SITE 6: note = alpha-methyl-2-fluoro-L-phenylalanine; SITE 16: note = L-ornithine; SITE 17: note = Lysine is chemically modified through conjugation of the epsilon-amino group of the Lysine side chain with (2-[2-(2-Amino-ethoxy)-ethoxy]-ace)) [Example 427] Criterion met

Is 4 nM strictly greater than the binder's reported Relative cAMP EC50? binder: YXQGTFTSDFSKXLDKKAQXAFIEYLLEGGPSSGAPPPSEGX (synthetic construct; SITE 2: note = 2-Aminoisobutyric Acid; SITE 13: note = alpha-methyl-leucine; SITE 17: note = Lysine is chemically modified through conjugation of the epsilon-amino group of the Lysine side chain with (2-[2-(2-Amino-ethoxy)-ethoxy]-acetyl)-(gamma-Glu)-CO-(CH2) 16-CO2H; SITE 20: n) [Example 56] Criterion met

Is 4 nM strictly greater than the binder's reported Relative cAMP EC50? binder: YXQGTXTSDXXIXLDXKAQXXFIEYLSEGGPSSGEPPPSGTE (synthetic construct; SITE 2: note = 2-Aminoisobutyric Acid; SITE 6: note = alpha-methyl-2-fluoro-L-phenylalanine; SITE 10: note = 3-(4-Pyridyl)-L-alanine; SITE 11: note = alpha-methyl-L-serine; SITE 13: note = alpha-methyl-leucine; SITE 16: note = L-ornithine; SITE 17: note = Lysine is chemically mo) [Example 530] Criterion not met

Is 4 nM strictly greater than the binder's reported Relative cAMP EC50? binder: YXQGTFTSDXSQXLDXKAQXAFIEXLIAXGPSSGAPPPSGSEE (non-natural residues, acylated Lys, C-terminal amide; synthetic construct; SITE 2: note = 2-Aminoisobutyric Acid; SITE 10: note = 3-(4-Pyridyl)-L-alanine; SITE 13: note = alpha-methyl-leucine; SITE 16: note = L-ornithine; SITE 17: note = Lysine is chemically modified through conjugation of the epsilon-amino group of the Lysine side chain with (2-[2-(2-) [Example 1110] Criterion not met
